target: CK1ε (Homo sapiens, UniProt P49674); assay: CK1ε kinase assay (Caliper LabChip electrophoretic separation of fluoresceinated peptide substrate and product); format: biochemical; conditions: 200 pM CK1ε, 50 μM ATP, 1.5 μM peptide, 22 hours at room temperature; read-out: CK1ε
Sequence (P49674 whole entry): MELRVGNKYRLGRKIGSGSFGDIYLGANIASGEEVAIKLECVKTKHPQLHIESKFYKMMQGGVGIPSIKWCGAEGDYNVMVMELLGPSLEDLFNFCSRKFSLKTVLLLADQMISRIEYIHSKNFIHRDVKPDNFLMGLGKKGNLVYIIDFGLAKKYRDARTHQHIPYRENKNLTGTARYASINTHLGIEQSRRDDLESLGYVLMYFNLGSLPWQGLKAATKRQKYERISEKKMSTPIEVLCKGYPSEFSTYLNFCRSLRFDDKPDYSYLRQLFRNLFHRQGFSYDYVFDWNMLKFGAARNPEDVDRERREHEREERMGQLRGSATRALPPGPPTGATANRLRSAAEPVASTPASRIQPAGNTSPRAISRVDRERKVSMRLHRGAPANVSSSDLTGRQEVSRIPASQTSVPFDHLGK
pIC50: −log10 of the molar value.
Recorded Metric: pIC50

Worked examples, 5 compounds total:
Here CC(C)(C)NC(=O)N1CCn2nc(-c3cn[nH]c3)c(C(N)=O)c2C1 [Compound 145] was tested on CK1ε (Homo sapiens, UniProt P49674), and its pIC50 came to 5.74

pIC50 on CK1ε (Homo sapiens, UniProt P49674) for CC1(NC(=O)N2CCn3nc(-c4ccc(F)c(Cl)c4)c(C(N)=O)c3C2)CC(C(F)F)C1 (single isomer, unassigned) [Compound 258] is 9.15

The compound CC1(NC(=O)N2CCn3nc(-c4ccc(Cl)c(Cl)c4)c(C(N)=O)c3C2)CC(F)(F)C1 [Compound 297] , tested on CK1ε (Homo sapiens, UniProt P49674), showed pIC50 of 9.52

Hey, CK1ε (Homo sapiens, UniProt P49674) data for CC1(NC(=O)N2Cc3c(C(N)=O)c(-c4ccc(F)c(Cl)c4)nn3CC2C2CC2)CC(F)(F)C1 (single isomer, unassigned) [Compound 349] : pIC50 came out at 7.70

Lab note: compound CC(C)(C)NC(=O)N1CCn2nc(-c3ccc(F)cc3F)c(C(N)=O)c2C1 [Compound 124] tested on CK1ε (Homo sapiens, UniProt P49674); recorded pIC50 was 6.93

(A) CC(C)(C)NC(=O)N1CCn2nc(-c3ccc(F)c(Cl)c3)c(C(N)=O)c2C1 [Compound 104]
(B) CC(C)(C)NC(=O)N1CCn2nc(-c3ccncc3)c(C(N)=O)c2C1 [Compound 126]
(C) CC(C)(C)NC(=O)N1CCn2nc(-c3cc(Cl)cc(C#N)c3)c(C(N)=O)c2C1 [Compound 154]
(D) CC(C)(C)NC(=O)N1CCn2nc(-c3ccccc3)c(C(N)=O)c2C1 [Compound 116]
Order the records, beginning with the lowest pIC50 and ending with the highest. Respond with the label ranking, as requested.
B, D, C, A

(a) CC(C)(C)NC(=O)N1CCn2nc(-c3ccc(F)cc3)c(C(N)=O)c2C1 [Compound 1]
(b) CC(C)(C)NC(=O)N1CCn2nc(-c3cccc(F)c3)c(C(N)=O)c2C1 [Compound 4]
Lower value of pIC50 belongs to which: a or b ? Your answer should be the label attached to the chosen record.
a
(a: 7.04, b: 7.42)

(A) CC(C)(C)NC(=O)N1CCn2nc(-c3ccccc3F)c(C(N)=O)c2C1 [Compound 107]
(B) CC(C)(C)NC(=O)N1Cc2c(C(N)=O)c(-c3ccc(F)c(Cl)c3)nn2[C@H]2COC[C@H]21 [Compound 352]
(C) N#Cc1ccc(NC(=O)N2CCn3nc(-c4cccc(Cl)c4)c(C(N)=O)c3C2)cc1 [Compound 166]
(D) CC(C)(C)NC(=O)N1CCn2nc(-c3cccc(Cl)c3Cl)c(C(N)=O)c2C1 [Compound 130]
Endpoint returns the given compounds ordered by ascending pIC50. Labels, ranked as asked.
A, D, B, C

###

molecular target: CK1ε (Homo sapiens); assay: CK1ε kinase assay (Caliper LabChip electrophoretic separation of fluoresceinated peptide substrate and product); type: biochemical; settings: 200 pM CK1ε, 50 μM ATP, 1.5 μM peptide, 22 hours at room temperature; read-out: CK1ε IC50 range
Recorded Metric: IC50

Field IC50 (entry CC(C)(C)NC(=O)N1CCn2nc(-c3ccc(C#N)cc3)c(C(N)=O)c2C1 ) reads 100 to 2000 nM

More entries:
Field IC50 (entry NC(=O)c1c(-c2ccc(F)c(Cl)c2)nn2c1CN(C(=O)NC1CC3(C1)CC(F)(F)C3)CC2 ) reads 0.01 to 10 nM

IC50 reported for this compound CC(C)(C)NC(=O)N1CCn2nc(-c3ccnc(F)c3)c(C(N)=O)c2C1 : 100 to 2000 nM

Query COC12CCC(NC(=O)N3CCn4nc(-c5cccc(Cl)c5)c(C(N)=O)c4C3)(CC1)C2 yields IC50 of 0.01 to 10 nM

Per the record, CC1(NC(=O)N2Cc3c(C(N)=O)c(-c4ccc(F)c(Cl)c4)nn3[C@H]3COC[C@H]32)CC(F)(F)C1 has IC50 of 0.01 to 10 nM

Quick note, IC50 for CC1(NC(=O)N2Cc3c(C(N)=O)c(-c4ccc(F)c(Cl)c4)nn3CC2C2CC2)CC(F)(F)C1 (single isomer, unassigned) [Compound 348] landed at 10 to 100 nM

So for NC(=O)c1c(-c2cccc(Cl)c2)nn2c1CN(C(=O)NC1CC3(CC3)C1)CC2 , the logged IC50 turned out to be 0.01 to 10 nM

###

Biological target: CK1δ (Homo sapiens)
Sequence (P48730 whole entry): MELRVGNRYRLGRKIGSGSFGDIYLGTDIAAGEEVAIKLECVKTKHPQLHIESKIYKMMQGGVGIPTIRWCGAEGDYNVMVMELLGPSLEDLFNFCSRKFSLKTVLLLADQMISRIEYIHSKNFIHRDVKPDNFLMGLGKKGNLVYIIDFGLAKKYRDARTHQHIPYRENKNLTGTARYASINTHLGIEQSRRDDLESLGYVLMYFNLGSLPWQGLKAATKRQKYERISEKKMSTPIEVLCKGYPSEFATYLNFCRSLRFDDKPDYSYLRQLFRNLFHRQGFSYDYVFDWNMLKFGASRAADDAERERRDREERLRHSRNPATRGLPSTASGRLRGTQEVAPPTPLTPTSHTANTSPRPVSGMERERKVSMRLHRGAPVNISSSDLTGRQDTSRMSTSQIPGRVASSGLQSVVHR
Assay: CK1δ kinase assay (Caliper LabChip electrophoretic separation of fluoresceinated peptide substrate and product)
Type: biochemical
Conditions: 200 pM CK1δ, 50 μM ATP, 1.5 μM peptide, 22 hours at room temperature; read-out: CK1δ IC50 range
Method: CK1ε and CK1δ Kinase Assays The kinase assay was performed in V-bottom 384-well plates. […] The reaction was incubated at room temperature for 22 hours and terminated by adding 45 μl of 35 mM EDTA to each sample. The reaction mixture was analyzed on the Caliper LABCHIP®3000 (Caliper, Hopkinton, Mass.) by electrophoretic separation of the unphosphorylated substrate and phosphorylated product. […] Compounds were dissolved at 10 mM in dimethylsulfoxide (DMSO) and evaluated at eleven concentrations. […]
Recorded Metric: IC50

The recorded IC50 for entry CS[C@H]1C[C@@H](NC(=O)N2CCn3nc(-c4ccc(Cl)c(Cl)c4)c(C(N)=O)c3C2)C1 equals 0.01 to 10 nM

Data point: CC(C)(C)NC(=O)N1CCn2nc(-c3ccccc3F)c(C(N)=O)c2C1 ; IC50 = 10 to 100 nM

Summary for this molecule, CC1(NC(=O)N2CCn3nc(-c4ccc(F)c(Cl)c4)c(C(N)=O)c3C2)CC2(CC2)C1 : IC50 is 0.01 to 10 nM

Others:
// IC50 value for NC(=O)c1c(-c2cccc(F)c2)nn2c1CN(C(=O)NCCC(F)(F)F)CC2 : 10 to 100 nM

The molecule listed as CC(F)(F)C(C)(C)NC(=O)N1CCn2nc(-c3ccc(Cl)c(Cl)c3)c(C(N)=O)c2C1 shows IC50 equal to 0.01 to 10 nM

Just so you know, measured IC50 for NC(=O)c1c(-c2ccc(F)c(Cl)c2)nn2c1CN(C(=O)NC13C4C5C1C1C3C4C51F)CC2 (stereo not drawn) came out at 0.01 to 10 nM

IC50 recorded for this molecule, CC1(NC(=O)N2Cc3c(C(N)=O)c(-c4ccc(F)c(Cl)c4)nn3CC2C2CC2)CC(F)(F)C1 (single isomer, unassigned) [Compound 349] , is 10 to 100 nM

Per the records, this molecule ( CC1CC(NC(=O)N2CCn3nc(-c4ccc(Cl)c(Cl)c4)c(C(N)=O)c3C2)C1 (single isomer, unassigned) [Compound 249] ) has IC50 equal to 0.01 to 10 nM

Form field IC50, entry CC12CC3(C)CC(C)(C1)CC(NC(=O)N1CCn4nc(-c5ccc(F)c(Cl)c5)c(C(N)=O)c4C1)(C2)C3 : 0.01 to 10 nM

Documented IC50 of CC(C)(NC(=O)N1CCn2nc(-c3cccc(Cl)c3)c(C(N)=O)c2C1)C(F)F : 0.01 to 10 nM

Per the records, this molecule ( CS(=O)(=O)[C@H]1C[C@@H](NC(=O)N2CCn3nc(-c4ccc(Cl)c(Cl)c4)c(C(N)=O)c3C2)C1 ) has IC50 equal to 0.01 to 10 nM

molecule CC12CC3CC(C)(C1)CC(NC(=O)N1CCn4nc(-c5ccc(Cl)c(Cl)c5)c(C(N)=O)c4C1)(C3)C2 , IC50 observed: 0.01 to 10 nM

get_value(item= NC(=O)c1c(-c2ccc(F)c(Cl)c2)nn2c1CN(C(=O)NC1CCCC1)CC2C(F)F (stereo not drawn) [Compound A12] , readout=IC50) returns 10 to 100 nM

Entry NC(=O)c1c(-c2cc(F)cc(Cl)c2)nn2c1CN(C(=O)NC1CC(F)(F)C1)CC2 , IC50 reported as 0.01 to 10 nM

Value of measured IC50 for the entry NC(=O)c1c(-c2cccc(Cl)c2)nn2c1CN(C(=O)NC1CC3(C1)CC(F)(F)C3)CC2 : 0.01 to 10 nM

###

biological target: CK1ε (Homo sapiens, UniProt P49674); test: CK1ε kinase assay (Caliper LabChip electrophoretic separation of fluoresceinated peptide substrate and product); type: biochemical; settings: 200 pM CK1ε, 50 μM ATP, 1.5 μM peptide, 22 hours at room temperature; read-out: CK1ε IC50 range
Recorded Metric: IC50

Study these solved cases before continuing.
Record CC(C)(NC(=O)N1CCn2nc(-c3ccc(F)c(Cl)c3)c(C(N)=O)c2C1)C(N)=O . Reported IC50: 10 to 100 nM

GET /value?item= NC(=O)c1c(-c2cccc(Cl)c2)nn2c1CN(C(=O)NC1CC(COC(F)F)C1)CC2 (single isomer, unassigned) [Compound 245] &field=IC50 returns 0.01 to 10 nM

New cases:
Lab note: CC(C)(C)NC(=O)N1CCn2nc(-c3ccc(F)c(C(F)(F)F)c3)c(C(N)=O)c2C1 gave IC50 of 100 to 2000 nM

Recorded result, NC(=O)c1c(-c2cccc(F)c2)nn2c1CN(C(=O)Nc1cc(F)ccc1F)CC2 , IC50: 10 to 100 nM

Reported IC50 for CC(C)(C)NC(=O)N1Cc2c(C(N)=O)c(-c3ccc(F)c(Cl)c3)nn2C(COC(F)F)C1 (centres unmarked) [Compound A21] was 0.01 to 10 nM

Value of IC50 reported for the molecule CC12CC3(C)CC(C)(C1)CC(NC(=O)N1CCn4nc(-c5ccc(F)c(Cl)c5)c(C(N)=O)c4C1)(C2)C3 is 0.01 to 10 nM

So for CC1CN(C(=O)NC(C)(C)C)Cc2c(C(N)=O)c(-c3cccc(F)c3)nn21 (single isomer, unassigned) [Compound A109] , the logged IC50 turned out to be 0.01 to 10 nM
